Biological target: DNA dC->dU-editing enzyme APOBEC-3G (Homo sapiens) (UniProt Q9HC16)
Sequence (Q9HC16 whole entry): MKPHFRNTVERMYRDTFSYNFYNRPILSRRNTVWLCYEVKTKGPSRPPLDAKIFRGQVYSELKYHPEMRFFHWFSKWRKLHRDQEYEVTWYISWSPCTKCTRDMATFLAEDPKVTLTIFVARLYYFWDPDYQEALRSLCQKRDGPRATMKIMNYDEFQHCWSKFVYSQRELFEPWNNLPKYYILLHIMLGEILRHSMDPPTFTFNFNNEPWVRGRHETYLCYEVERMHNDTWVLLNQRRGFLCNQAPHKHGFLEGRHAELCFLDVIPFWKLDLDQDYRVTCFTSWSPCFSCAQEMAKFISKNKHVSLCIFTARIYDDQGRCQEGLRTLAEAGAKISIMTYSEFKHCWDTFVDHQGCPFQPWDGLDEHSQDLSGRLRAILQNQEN
Experiment: Inhibition of Vif-mediated human A3G degradation in HEK-293T cells cotransfected with hA3G and Vif at 20 uM by western blot analysis relative to control
Type: cell-based
measurement_name: inhibition

Below: 4 molecules and their reported inhibition.
>  <structure_smiles>
CCC(=O)Nc1cc(C(=O)Nc2ccc(OC)cc2)ccc1OC(C)C

>  <subject_of_test>
DNA dC->dU-editing enzyme APOBEC-3G (Homo sapiens) (UniProt Q9HC16)

>  <measurement_name>
inhibition

>  <result>
< 25%

$$$$
>  <structure_smiles>
COc1ccc(NC(=O)c2ccc(OCCCN(C)C)c([N+](=O)[O-])c2)cc1

>  <subject_of_test>
DNA dC->dU-editing enzyme APOBEC-3G (Homo sapiens) (UniProt Q9HC16)

>  <measurement_name>
inhibition

>  <result>
< 25%

$$$$
>  <structure_smiles>
CCC(=O)Nc1cc(C(=O)Nc2ccc(OC)cc2)ccc1OCCCN1CCN(C)CC1

>  <subject_of_test>
DNA dC->dU-editing enzyme APOBEC-3G (Homo sapiens) (UniProt Q9HC16)

>  <measurement_name>
inhibition

>  <result>
> 50%

$$$$
>  <structure_smiles>
COc1ccc(NC(=O)c2ccc3c(c2)NC(=O)CO3)cc1

>  <subject_of_test>
DNA dC->dU-editing enzyme APOBEC-3G (Homo sapiens) (UniProt Q9HC16)

>  <measurement_name>
inhibition

>  <result>
25%

$$$$

# context switch: different molecule, same inhibition
Per the records, this molecule ( "COc1ccc(C(=O)Nc2ccc(N(C)C)cc2)cc1[N+](=O)[O-]" ) has inhibition equal to > 50%

* * *

Assay: Selectivity index, ratio of CC50 for cytotoxicity against human Huh7.5 cells to EC50 for antiviral activity against Hepatitis C virus infected in human Huh7.5 cells
Format: toxicity, cell-based
Conditions: read-out: Ratio CC50/EC50
So basically: selectivity ratio at 20 or higher? That is satisfied. Lower than 20? That is not satisfied.

Some solved entries appear below for comparison.
>  <molecule>
CN1CCN(Cc2ccc(NC(=O)c3ccc(OCCCCl)c([N+](=O)[O-])c3)cc2C#N)CC1

>  <group>
satisfied

$$$$
>  <molecule>
CN(C)C1CCN(Cc2ccc(NC(=O)c3ccc(OCCCCl)c([N+](=O)[O-])c3)cc2C(F)(F)F)C1 (centres undefined)

>  <group>
satisfied

$$$$
>  <molecule>
CCC(=O)Nc1cc(C(=O)Nc2ccc(OC)cc2)ccc1OCCCN1CCN(C)CC1

>  <group>
not satisfied

$$$$

[Q] Is the recorded value of selectivity ratio equal to or greater than 20 for this molecule? "CC1CCN(c2ccc(NC(=O)c3ccc(OCCCCl)c([N+](=O)[O-])c3)cn2)CC1"
[A] not satisfied

[Q] Is the recorded value of selectivity ratio equal to or greater than 20 for this molecule? "CN1CCN(Cc2ccc(NC(=O)c3ccc(OCCCCCCl)c([N+](=O)[O-])c3)cc2C(F)(F)F)CC1"
[A] satisfied

[Q] Is the recorded value of selectivity ratio equal to or greater than 20 for this molecule? CC(C)Oc1ccc(C(=O)Nc2ccc(CN3CCN(C)CC3)c(C(F)(F)F)c2)cc1NC(=O)C(C)Br (centres undefined)
[A] satisfied

[Q] Is the recorded value of selectivity ratio equal to or greater than 20 for this molecule? "CCC(=O)Nc1cc(C(=O)Nc2ccc(-c3cc4ccccc4[nH]3)cc2)ccc1OC"
[A] not satisfied

[Q] Is the recorded value of selectivity ratio equal to or greater than 20 for this molecule? "CC(C)Oc1ccc(C(=O)Nc2ccc(N(C)C)cc2)cc1[N+](=O)[O-]"
[A] not satisfied

[Q] Is the recorded value of selectivity ratio equal to or greater than 20 for this molecule? "CN1CCN(Cc2ccc(NC(=O)c3ccc(OCCCCl)c(N)c3)cc2C(F)(F)F)CC1"
[A] not satisfied

* * *

System: Huh-7.5
Experiment: Cytotoxicity against human Huh7.5 cells assessed as inhibition of cell growth measured after 96 hrs by MTT assay
Format: toxicity, cell-based
Settings: huh-7.5, 96 h
measurement_name: CC50 (µM)
// units = µM; emit number, no label

Value (CC50, Huh-7.5) for record "CN1CCN(Cc2ccc(NC(=O)c3ccc(OCCCCl)c([N+](=O)[O-])c3)cc2C(F)(F)F)CC1" = 6.8

Value (CC50, Huh-7.5) for record "CCC[C@H](NC(=O)[C@@H]1[C@H]2CCC[C@H]2CN1C(=O)[C@@H](NC(=O)[C@@H](NC(=O)c1cnccn1)C1CCCCC1)C(C)(C)C)C(=O)C(=O)NC1CC1" = 23.7

Value (CC50, Huh-7.5) for record "CN1CCN(Cc2ccc(NC(=O)c3ccc(OCCCCl)c(S(N)(=O)=O)c3)cc2C(F)(F)F)CC1" = 5.47

* * *

Attribute: pEC50
Tested on: Hepatitis C virus
Assay: Antiviral activity against Hepatitis C virus infected in human Huh7.5 cells assessed as inhibition of viral replication incubated for 72 hrs by qRT-PCR analysis
Assay type: functional, organism-based, Hepacivirus hominis
Settings: Huh7.5, 72 h
For clarity, pEC50 is expressed as the negative log10 of concentration in mol/L.

Below: 6 molecules and their reported pEC50.
>  <structure_smiles>
CCC(=O)Nc1cc(C(=O)Nc2ccc(CN3CCN(C)CC3)c(C(F)(F)F)c2)ccc1OC

>  <pEC50>
5.83

$$$$
>  <structure_smiles>
CCC(=O)Nc1cc(C(=O)Nc2ccc(OC)cc2)ccc1OC

>  <pEC50>
5.89

$$$$
>  <structure_smiles>
COc1ccc(NC(=O)c2ccc(OCCCCl)c([N+](=O)[O-])c2)cc1

>  <pEC50>
5.62

$$$$
>  <structure_smiles>
CC(C)Oc1ccc(C(=O)Nc2ccc(N(C)C)cc2)cc1[N+](=O)[O-]

>  <pEC50>
5.51

$$$$
>  <structure_smiles>
CN1CCN(Cc2ccc(NC(=O)c3ccc(OCCCCl)c(N)c3)cc2C(F)(F)F)CC1

>  <pEC50>
5.93

$$$$
>  <structure_smiles>
COc1ccc(NC(=O)c2ccc3c(c2)NC(=O)CO3)cc1

>  <pEC50>
5.13

$$$$

# context switch: different molecule, same pEC50
Per the records, this molecule ( "CN1CCN(Cc2ccc(NC(=O)c3ccc(OCCCCl)c([N+](=O)[O-])c3)cn2)CC1" ) has pEC50 equal to 7.08

* * *

Experiment: Selectivity index, ratio of CC50 for cytotoxicity against human Huh7.5 cells to EC50 for antiviral activity against Hepatitis C virus infected in human Huh7.5 cells
Format: toxicity, cell-based
Details: read-out: Ratio CC50/EC50
Attribute: selectivity ratio
The response must contain the number and no unit.

>  <molecule>
COc1ccc(C(=O)Nc2ccc(N(C)C)cc2)cc1[N+](=O)[O-]

>  <selectivity ratio>
22

$$$$

Per the records, this molecule ( "CCOc1ccc(C(=O)Nc2ccc(OC)cc2)cc1NC(=O)CC" ) has selectivity ratio equal to 48

Per the records, this molecule ( COc1ccc(C(=O)Nc2cc(OC)c(OC)c(OC)c2)cc1NC(=O)C(C)Br (configuration not stated) ) has selectivity ratio equal to 7

Per the records, this molecule ( "CCC(=O)Nc1cc(C(=O)Nc2ccc(CN3CCN(C)CC3)c(C(F)(F)F)c2)ccc1OCCCCl" ) has selectivity ratio equal to 36.3

Per the records, this molecule ( "CN1CCN(Cc2ccc(NC(=O)c3ccc(OCCCCl)c(Cl)c3)cc2C(F)(F)F)CC1" ) has selectivity ratio equal to 7

Per the records, this molecule ( "CCCOc1ccc(C(=O)Nc2ccc(OC)cc2)cc1NC(=O)CC" ) has selectivity ratio equal to 68

* * *

Attribute: EC50
Test system: Hepatitis C virus
Assay: Antiviral activity against Hepatitis C virus infected in human Huh7.5 cells assessed as inhibition of viral replication incubated for 72 hrs by qRT-PCR analysis
Type: functional, organism-based, Hepacivirus hominis
Conditions: Huh7.5, 72 h

Per the records, this molecule ( "CCC(=O)Nc1cc(C(=O)Nc2ccc(CN3CCN(C)CC3)cc2)ccc1OC" ) has EC50 equal to > 22.2 µM

Per the records, this molecule ( "CCC(=O)Nc1cc(C(=O)Nc2ccc(OC)cc2)ccc1OCCCN1CCOCC1" ) has EC50 equal to > 22.2 µM

Per the records, this molecule ( "CCC(=O)Nc1cc(C(=O)Nc2ccc(OC)cc2)ccc1OCCCN(C)C" ) has EC50 equal to > 22.2 µM

Per the records, this molecule ( "COc1ccc(NC(=O)c2ccc3c(c2)NCCO3)cc1" ) has EC50 equal to > 22.2 µM

* * *

Assay: Selectivity index, ratio of CC50 for cytotoxicity against human Huh7.5 cells to EC50 for antiviral activity against Hepatitis C virus infected in human Huh7.5 cells
Assay type: toxicity, cell-based
Details: read-out: Ratio CC50/EC50
So basically: selectivity ratio at 40 or higher? That is class 1. Lower than 40? That is class 0.

Some solved entries appear below for comparison.
>  <structure_smiles>
CN1CCN(Cc2ccc(NC(=O)c3ccc(OCCCl)c([N+](=O)[O-])c3)cc2C(F)(F)F)CC1

>  <group>
class 1

$$$$
>  <structure_smiles>
CN1CCN(Cc2ccc(NC(=O)c3ccc(OCCCCl)c(F)c3)cc2C(F)(F)F)CC1

>  <group>
class 0

$$$$
>  <structure_smiles>
CCC(=O)Nc1cc(C(=O)Nc2ccc(N(C)C)cc2)ccc1OC

>  <group>
class 1

$$$$

[Q] Is the recorded value of selectivity ratio equal to or greater than 40 for this compound? "CC(C)Oc1ccc(C(=O)Nc2ccc(N(C)C)cc2)cc1N"
[A] class 0
